Data provenance: patent US10343992B2

Below are IC50 values recorded for UniProt:Q70CQ3.
Sequence (Q70CQ3 57-517): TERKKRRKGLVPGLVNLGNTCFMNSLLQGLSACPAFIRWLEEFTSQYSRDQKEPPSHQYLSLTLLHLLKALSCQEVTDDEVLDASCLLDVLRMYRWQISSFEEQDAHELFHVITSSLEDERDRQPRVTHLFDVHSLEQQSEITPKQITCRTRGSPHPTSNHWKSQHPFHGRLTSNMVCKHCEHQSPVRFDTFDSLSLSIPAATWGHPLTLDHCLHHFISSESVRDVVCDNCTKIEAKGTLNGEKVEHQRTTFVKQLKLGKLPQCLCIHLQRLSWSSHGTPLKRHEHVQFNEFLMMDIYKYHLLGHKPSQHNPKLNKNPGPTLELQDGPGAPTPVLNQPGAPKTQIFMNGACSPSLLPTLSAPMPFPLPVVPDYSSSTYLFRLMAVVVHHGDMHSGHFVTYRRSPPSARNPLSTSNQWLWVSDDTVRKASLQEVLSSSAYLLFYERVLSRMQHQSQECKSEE

GET /value?item= N#CN1C[C@H]2CCN(C(=O)c3ccc(N4CCOCC4)c(Cl)c3)[C@H]2C1 [Example 268] &field=IC50 returns 0.1 to 1 µM

The recorded IC50 for entry COc1ccc(-c2cc(C(=O)N[C@@H]3CCN(C#N)C3)on2)cc1 [Example 100] equals < 0.1 µM

The measured IC50 associated with Cn1cc(-c2cc(C(=O)N[C@@H]3CCN(C#N)C3)ccc2F)cn1 [Example 43] reads 0.1 to 1 µM

For record N#CN1CC[C@@H](NC(=O)c2ccc(-c3ccccc3)cn2)C1 [Example 1] the listed IC50 is 0.1 to 1 µM

For record C[C@H]1CN(C#N)C[C@@H]1NC(=O)c1ccc(N2CCOCC2)c(Cl)c1 (racemic) [Example 175] the listed IC50 is < 0.1 µM

Lab book: IC50 of N#CN1C[C@H]2CCN(C(=O)c3cc(-c4ccccc4)no3)[C@H]2C1 (racemic) [Example 53] noted as 0.1 to 1 µM

Form: compound = N#CN1CCC(NC(=O)Nc2ccc(C(F)(F)F)cc2)C1 (centres unmarked) [Example 252] ; IC50 = 0.1 to 1 µM

For this compound ( Cn1cc(-c2ccc(NC(=O)N3CC[C@@H]4CN(C#N)C[C@@H]43)c(F)c2)cn1 [Example 245] ), measured IC50 is 0.1 to 1 µM
